Numbers sourced from patent US4317917A.

assay: Acute toxicity (LD50) in the Swiss mouse; settings: in vivo, oral, 95% reliability limits in brackets, seventh day
Reported Property: LD50 at 168 h (mg/kg)
Numbers only, in mg/kg.

Incoming: Supply reported LD50 at 168 h belonging to this compound: Cc1ccc(OC(=O)C=Cc2ccccc2)c(C(=O)O)c1
Outgoing: 902

----------
assay: Acute toxicity (LD50) in the Wistar rat; details: in vivo, ip, 95% reliability limits in brackets, seventh day
Reported Property: LD50 at 168 h (mg/kg)
Give bare numbers, in mg/kg.

Incoming: Supply reported LD50 at 168 h belonging to this molecule: Cc1ccc(OC(=O)C=Cc2ccccc2)c(C(=O)O)c1
Outgoing: 734
